Data provenance: patent US12595248B2

# Target System: PRMT5-MEP50 enzyme complex (Homo sapiens, UniProt O14744)
# Construct: Full-length (FL)-PRMT5-MEP50 enzyme complex (recombinant proteins from baculovirus-transfected Sf21 cells: FL-PRMT5; MW=73837 kDa and FL-MEP50; MW=38614); made in house; host or cells: baculovirus-transfected Sf21 cells
# Protocol Description: PRMT5-MEP50 Enzyme Methylation Assay (Version B)
# Type: biochemical
# Conditions Used: first of two EC50s: 7 parameters biphasic model; read-out: Enzyme Methylation Assay Version B (EC50_1)
Measurement Type: EC50 (nM)

{"columns": ["Compound", "Unit String", "EC50"],
 "data": [
  ["CCC1Oc2ccc(C(=O)N3CC[C@@H](N4CCc5ccccc5C4)[C@H](O)C3)cc2NC1=O (single isomer, unassigned) [Example 12]", "nM", 106],
  ["COc1cnc(NC2CCN(C(C)=O)CC2)cc1C(=O)N1CC[C@H](N2CCc3ccccc3C2)[C@@H](O)C1", "nM", 9.3],
  ["CCC1Oc2ccc(C(=O)N3CC[C@H](N4CCc5ccccc5C4)[C@@H](O)C3)cc2NC1=O (single isomer, unassigned) [Example 10]", "nM", 6.4],
  ["CC(=O)N1CCC(Nc2cc(C(=O)N3CC[C@H](N4CCc5ccccc5C4)[C@@H](O)C3)ccn2)C(F)(F)C1 (single isomer, unassigned) [Example 7]", "nM", 16],
  ["O=C(c1ccc(OCC(F)(F)F)nc1)N1CC[C@H](N2CCc3ccccc3C2)[C@@H](O)C1", "nM", 3.7]
]}

A = CC1OC(=O)Nc2cc(C(=O)N3CC[C@H](N4CCc5ccccc5C4)[C@@H](O)C3)c(F)cc21 (single isomer, unassigned) [Example 100]
B = O=C(c1cn2c(n1)CCC(C(F)(F)F)C2)N1CC[C@H](N2CCc3ccccc3C2)[C@@H](O)C1 (single isomer, unassigned) [Example 83]
Response body: label of entry with the larger EC50; valid values A , B . Respond using the label that marks the chosen record. B

---

# Target System: PRMT5-MEP50 enzyme complex (Homo sapiens, UniProt O14744)
# Construct: Full-length (FL)-PRMT5-MEP50 enzyme complex (recombinant proteins from baculovirus-transfected Sf21 cells: FL-PRMT5; MW=73837 kDa and FL-MEP50; MW=38614); made in house; host or cells: baculovirus-transfected Sf21 cells
# Protocol Description: PRMT5-MEP50 Enzyme Methylation Assay (Version B)
# Type: biochemical
# Conditions Used: second of two EC50s: 7 parameters biphasic model; read-out: Enzyme Methylation Assay Version B (EC50_2)
Measurement Type: EC50 (µM)

{"columns": ["Molecule", "Value"],
 "data": [
  ["CC(=O)N1CCC(Nc2cc(C(=O)N3CC[C@H](N4CCc5ccccc5C4)[C@@H](O)C3)ccn2)C(F)(F)C1 (single isomer, unassigned) [Example 7]", 8.57]
]}

A = CC(=O)N1CCC(Nc2cc(C(=O)N3CC[C@H](N4CCc5ccccc5C4)[C@@H](O)C3)c(F)cn2)C(F)(F)C1 (single isomer, unassigned) [Example 86]
B = CC(=O)N1CCC(Nc2cc(C(=O)N3CCC(N4Cc5ccccc5C(F)(F)C4)C(O)C3)c(Cl)cn2)CC1 (single isomer, unassigned) [Example 25]
Response body: label of entry with the larger EC50; valid values A , B . Respond using the label that marks the chosen record. B

---

# Target System: PRMT5 (Homo sapiens)
# Construct: seeded with 4000 MCF-7 cells in 30 μl media; endogenous in cells
# Sequence (O14744 whole entry): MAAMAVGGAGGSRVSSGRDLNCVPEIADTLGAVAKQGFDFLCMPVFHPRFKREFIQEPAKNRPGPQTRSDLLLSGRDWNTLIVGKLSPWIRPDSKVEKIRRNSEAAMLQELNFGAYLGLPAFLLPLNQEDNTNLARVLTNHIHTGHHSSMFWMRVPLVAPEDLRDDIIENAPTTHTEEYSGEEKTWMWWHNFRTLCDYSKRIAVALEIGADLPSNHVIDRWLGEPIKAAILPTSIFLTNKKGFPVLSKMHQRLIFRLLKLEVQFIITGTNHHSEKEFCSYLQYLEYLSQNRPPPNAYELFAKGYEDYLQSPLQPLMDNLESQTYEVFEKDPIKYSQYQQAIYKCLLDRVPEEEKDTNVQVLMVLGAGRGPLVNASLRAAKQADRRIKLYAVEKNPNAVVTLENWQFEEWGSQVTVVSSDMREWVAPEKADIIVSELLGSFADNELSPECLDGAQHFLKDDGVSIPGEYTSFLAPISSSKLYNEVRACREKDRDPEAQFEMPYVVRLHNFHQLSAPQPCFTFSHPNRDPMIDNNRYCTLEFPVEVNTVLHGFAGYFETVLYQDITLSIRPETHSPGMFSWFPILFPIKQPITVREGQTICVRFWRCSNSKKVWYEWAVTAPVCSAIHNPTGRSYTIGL
# Sequence (Q9BQA1 whole entry partner): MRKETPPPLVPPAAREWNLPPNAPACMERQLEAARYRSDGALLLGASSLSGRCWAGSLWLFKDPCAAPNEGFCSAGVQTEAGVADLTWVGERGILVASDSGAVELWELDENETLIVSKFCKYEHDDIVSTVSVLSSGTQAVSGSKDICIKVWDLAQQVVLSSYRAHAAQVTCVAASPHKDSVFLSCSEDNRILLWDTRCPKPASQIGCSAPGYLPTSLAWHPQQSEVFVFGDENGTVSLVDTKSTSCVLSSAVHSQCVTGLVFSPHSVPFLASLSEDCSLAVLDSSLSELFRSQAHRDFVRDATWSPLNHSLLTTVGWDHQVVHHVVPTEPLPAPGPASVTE
# Protocol Description: PRMT5 Cell Target Engagement (TE) Assay
# Conditions Used: MCF-7 cells, treated for 3 days, symmetric dimethylation of arginine (SDMA) by high content imaging
Below is a list of entries, each paired with its recorded pEC50 value.
Kindly note that pEC50 refers to -log10 of the concentration in mol/L and answer with the value alone.

Solved cases below.
{"columns": ["Compound", "pEC50"],
 "data": [
  ["CCC1Oc2ccc(C(=O)N3CC[C@@H](N4CCc5ccccc5C4)[C@H](O)C3)cc2NC1=O (single isomer, unassigned) [Example 12]", 5.22],
  ["CC(C)(C)OC(=O)N1C2CCC1CC(Nc1cc(C(=O)N3CC[C@H](N4CCc5ccccc5C4)[C@@H](O)C3)c(F)cn1)C2 (stereo partly drawn)", 7.38]
]}

Turning now to a further compound:
What does the data say about its pEC50? Entry: CCOc1cc(C(=O)N2C3CCC2COC3)ccc1C(=O)N1CC[C@H](N2CCc3ccccc3C2)[C@@H](O)C1 7.57

---

# Target System: PRMT5 (Homo sapiens)
# Construct: seeded with 4000 MCF-7 cells in 30 μl media; endogenous in cells
# Protocol Description: PRMT5 Cell Target Engagement (TE) Assay
# Conditions Used: MCF-7 cells, treated for 3 days, symmetric dimethylation of arginine (SDMA) by high content imaging
Measurement Type: EC50 (nM)

Solved cases below.
{"columns": ["Molecule", "EC50 [nM]"],
 "data": [
  ["CCOc1cc(C(=O)N2C3CCC2COC3)ccc1C(=O)N1CC[C@@H](N2CCc3ccccc3C2)[C@H](O)C1", 2220],
  ["O=C(c1ccc2c(O)c(C3CC3)cnc2c1)N1CC[C@H](N2CCc3ccccc3C2)[C@@H](O)C1", 140],
  ["CC(=O)N1CCC(Nc2cc(C(=O)N3CC[C@H](N4CCc5ccccc5C4)[C@@H](O)C3)c(F)cn2)C1 (single isomer, unassigned) [Example 114]", 28],
  ["COc1nc2nc(C(=O)N3CC[C@H](N4CCc5ccccc5C4)[C@@H](O)C3)cn2cc1Br", 55]
]}

A = CO[C@H](C)c1cc(C(C)C)cn2cc(C(=O)N3CC[C@H](N4CCc5ccccc5C4)[C@@H](O)C3)nc12
B = CC1(C)OC(=O)Nc2cc(C(=O)N3CC[C@H](N4CCc5ccccc5C4)[C@@H](O)C3)ccc21
C = CC(C)(C#N)c1ccc(C(=O)N2CC[C@H](N3CCc4ccccc4C3)[C@@H](O)C2)cn1 (single isomer, unassigned)
D = CS(=O)(=O)N1CCC(Nc2cc(C(=O)N3CC[C@H](N4CCc5ccccc5C4)[C@@H](O)C3)c(F)cn2)CC1
E = O=C(c1cn2cc(Cl)cc(Cl)c2n1)N1CC[C@H](N2CCc3ccccc3C2)[C@@H](O)C1
Write the entries in order, lowest recorded EC50 first. Hello, could you send the labels back in the order asked? Thank you. A, D, E, B, C

A = CC(=O)N1CCC(Nc2cc(C(=O)N3CC[C@H](N4CCc5ccccc5C4)[C@@H](O)C3)c(Cl)cn2)CC1
B = Cc1c(Br)cnc2ncc(C(=O)N3CC[C@H](N4CCc5ccccc5C4)[C@@H](O)C3)n12
C = COc1cnc(NC2CCN(C(C)=O)CC2)cc1C(=O)N1CC[C@H](N2CCc3ccccc3C2)[C@@H](O)C1
D = O=C(c1ccn(CC(F)(F)F)c(=O)c1)N1CC[C@H](N2CCc3ccccc3C2)[C@@H](O)C1
Write the entries in order, lowest recorded EC50 first. Hello, could you send the labels back in the order asked? Thank you. A, C, D, B
(A: 7.8 nM, C: 14 nM, D: 405 nM, B: 2230 nM)

I = CCOc1nc(Br)cn2cc(C(=O)N3CC[C@H](N4CCc5ccccc5C4)[C@@H](O)C3)nc12
II = O=C(c1cn2cc(Br)ccc2n1)N1CC[C@H](N2CCc3ccccc3C2)[C@@H](O)C1 (single isomer, unassigned)
III = CC1(C)CC(=O)Nc2cc(C(=O)N3CC[C@@H](N4CCc5ccccc5C4)[C@H](O)C3)ccc21
IV = O=C1Nc2cc(C(=O)N3CC[C@H](N4CCc5ccccc5C4)[C@@H](O)C3)ccc2OC1C1CC1 (single isomer, unassigned) [Example 80]
Hello, I need these entries ordered by EC50, highest reading first. Thanks! Hello, could you send the labels back in the order asked? Thank you. III, II, I, IV

a = CN(C)C(=O)N1CCC(Nc2cc(C(=O)N3CC[C@H](N4CCc5ccccc5C4)[C@@H](O)C3)c(F)cn2)CC1
b = CC(=O)N1CCC(Nc2nccc(C(=O)N3CC[C@H](N4CCc5ccccc5C4)[C@@H](O)C3)c2F)C(F)(F)C1 (single isomer, unassigned) [Example 15]
c = CC(=O)N1CCC(Nc2cc(C(=O)N3CC[C@H](N4CCc5ccccc5C4)[C@@H](O)C3)ccn2)C(F)(F)C1 (single isomer, unassigned) [Example 7]
d = CC(=O)N1CCC(Nc2cc(C(=O)N3CCC(N4CCc5ccccc5C4)C(O)C3C)ccn2)CC1 (single isomer, unassigned) [Example 20]
e = CC(=O)N1CCC(Nc2cc(C(=O)N3CC[C@H](N4CCc5ccccc5C4)[C@@H](O)C3)c(F)cn2)C(F)(F)C1 (single isomer, unassigned) [Example 86]
Hello, I need these entries ordered by EC50, highest reading first. Thanks! Hello, could you send the labels back in the order asked? Thank you. c, b, d, a, e
(c: 326 nM, b: 57 nM, d: 12 nM, a: 8.1 nM, e: 4.4 nM)

P = CCN1CCNc2cc(C(=O)N3CC[C@H](N4CCc5ccccc5C4)[C@@H](O)C3)ccc2C1=O
Q = O=C(c1cn2cc(C(F)(F)F)cc(Cl)c2n1)N1CC[C@H](N2CCc3ccccc3C2)[C@@H](O)C1
R = CC1CC1c1cnc2nc(C(=O)N3CCC(N4CCc5ccccc5C4)[C@@H](O)C3)cn2c1 (single isomer, unassigned) [Example 129]
Hello, I need these entries ordered by EC50, highest reading first. Thanks! Hello, could you send the labels back in the order asked? Thank you. P, Q, R
